- Tested on: SB.msgc-1
- protocol description: viability at highest tested concentration (MAXR) relative to DMSO; higher = less cytotoxic
- condition description: SB.msgc-1 (sporadic gastric cancer)
Documented viability across a set of molecules
parameter measured: viability (%)

molecule: CN(c1ncccc1CNc1nc(Nc2ccc3c(c2)CC(=O)N3)ncc1C(F)(F)F)[S+](C)(=O)[O-] (top concentration 46.0829 µM)
result unit: %
reported result: 36
//
molecule: CC(C)=CC[C@@H](O)C/1=C/C(=O)C2=C(O)C=CC(=C2C1=O)O [Shikonin] (top concentration 46.0829 µM)
result unit: %
reported result: 1.71
//
molecule: Cc1ccc(C(=O)Nc2cccc(C(F)(F)F)c2)cc1-c1ccc2nc(NCCN3CCOCC3)ncc2c1 [AMG-47a] (top concentration 46.0829 µM)
result unit: %
reported result: 40
//
molecule: C/C=C1\C2C=C(C)CC1(N)c1ccc(=O)[nH]c1C2 (stereo unspecified) [Huperizine A] (top concentration 46.0829 µM)
result unit: %
reported result: 117
//
molecule: C[C@@]12O[C@@H](C[C@]1(O)CO)n1c3ccccc3c3c4c(c5c6ccccc6n2c5c31)CNC4=O [Lestaurtinib] (top concentration 46.0829 µM)
result unit: %
reported result: 31.1
//
molecule: COc1cc2ncnc(Nc3cccc(Cl)c3)c2cc1OC [AG-1478] (top concentration 46.0829 µM)
result unit: %
reported result: 35.8
